Where do these numbers come from? They come from patent US9593099B2.

experiment: In Vivo Pharmacokinetics Assay in mouse; conditions: PO/IV 10/2 mg/kg
ASSAY METRIC: F (%)
Answer in %, number only, no unit symbol.

| COMPOUND | F / % |
| --- | --- |
| COC(=O)N[C@@H](C)CNc1nccc(-c2cn(C(C)C)nc2-c2cccc(NS(C)(=O)=O)c2F)n1 [Compound 4] | 36 |
| COC(=O)N[C@@H](C)CNc1nccc(-c2cn(C(C)C)nc2-c2cc(Cl)cc(NS(C)(=O)=O)c2F)n1 [Compound 9] | 43 |
| COC(=O)N[C@@H](C)CNc1nccc(-c2cn(C(C)C)nc2-c2c(F)ccc(NS(C)(=O)=O)c2F)n1 [Compound 6] | 15 |

Proceeding to the next compound to report its F.
Need F, item CCCS(=O)(=O)Nc1ccc(F)c(-c2nn(C(C)C)cc2-c2ccnc(NC[C@H](C)NC(=O)OC)n2)c1F [Compound 7]
8
